Form: system (Acetylcholinesterase (Electrophorus electricus)), quantity (IC50), values below.

Reference set (5 entries):
| compound | IC50 |
| --- | --- |
| O=C1NC(=O)/C(=C/c2ccc(C(=O)O)cc2)S1 | > 100 µM |
| CCCc1ccccc1NC(=O)[C@H](C)NC(=O)c1ccc(/C=C2\SC(=O)NC2=O)cc1 | > 100 µM |
| CCCc1ccccc1NC(=O)[C@H](CO)NC(=O)c1ccc(/C=C2\SC(=O)NC2=O)cc1 | > 100 µM |
| CCCc1ccccc1NC(=O)[C@H](C)NC(=O)c1ccc(/C=C2\SC(=S)NC2=O)cc1 | > 100 µM |
| CCCc1ccccc1NC(=O)[C@H](COC(C)(C)C)NC(=O)c1ccc(/C=C2\SC(=S)NC2=O)cc1 | 21.6 µM |

Please turn your attention to the following entry.
GET /values?item= CCCc1ccccc1OCC(O)COc1ccc(/C=C2\SC(=O)NC2=O)cc1 (racemic) &system= Acetylcholinesterase (Electrophorus electricus) returns IC50: > 100 µM

The origin of these recorded values is ChEMBL document CHEMBL1926649.
